# System: Dkk1-LRP5-TCF-Luciferase
# test_name: Functional Dkk1-LRP5-TCF-Luciferase Assay in U2OS Cells
# run_conditions: maximum fold induction over DMSO control
Give measured A = MAX FOLD Induction/DMSO CONTROL for each item. Keep answers brief.
API: value field is a number in fold; no unit string.

query: Give a short answer stating reported A = MAX FOLD Induction/DMSO CONTROL for "c1ccc2cc(-c3ccnc(N4CCC(CN5CCNCC5)CC4)n3)ccc2c1" .
result: 2.510

query: Give a short answer stating reported A = MAX FOLD Induction/DMSO CONTROL for "CC(C)CNCC1CCN(c2nccc(-c3ccc4ccccc4c3)n2)CC1" .
result: 1.480

query: Give a short answer stating reported A = MAX FOLD Induction/DMSO CONTROL for "C[C@@H](N)C1CCN(c2nccc(-c3ccc4ccccc4c3)n2)CC1" .
result: 2.280

query: Give a short answer stating reported A = MAX FOLD Induction/DMSO CONTROL for "CN(C)[C@H]1CCN(C(=O)[C@H]2CCCN2c2nccc(-c3ccc4ccccc4c3)n2)C1" .
result: 2.115

query: Give a short answer stating reported A = MAX FOLD Induction/DMSO CONTROL for NCC1CCCN(c2nccc(-c3ccc4ccccc4c3)n2)C1 (centres unmarked) .
result: 5.433

---

# Tested on: Dkk1-LRP5-TCF-Luciferase
# test_name: Functional Dkk1-LRP5-TCF-Luciferase Assay in U2OS Cells
# run_conditions: maximum fold induction over DMSO control
Give measured A = MAX FOLD Induction/DMSO CONTROL for each item. Keep answers brief.
API: value field is a number in fold; no unit string.

query: Give a short answer stating reported A = MAX FOLD Induction/DMSO CONTROL for "c1ccc2cc(-c3ccnc(NC4CCCCC4)n3)ccc2c1" .
result: 1.230

query: Give a short answer stating reported A = MAX FOLD Induction/DMSO CONTROL for "CN(C)C(=O)N1CC[C@H](Nc2nccc(-c3ccc4ccccc4c3)n2)C1" .
result: 2.945

query: Give a short answer stating reported A = MAX FOLD Induction/DMSO CONTROL for "CN(C)[C@H]1CCN([C@@H]2CCN(c3nccc(-c4ccc5ccccc5c4)n3)C2)C1" .
result: 3.175

query: Give a short answer stating reported A = MAX FOLD Induction/DMSO CONTROL for "NCC1CN(c2nccc(-c3ccc4ccccc4c3)n2)C1" .
result: 3.080

query: Give a short answer stating reported A = MAX FOLD Induction/DMSO CONTROL for "O=C1CN([C@@H]2CCN(c3nccc(-c4ccc5ccccc5c4)n3)C2)CCN1" .
result: 2.874

query: Give a short answer stating reported A = MAX FOLD Induction/DMSO CONTROL for "N[C@@H](CO)C1CCN(c2nccc(-c3ccc4ccccc4c3)n2)CC1" .
result: 1.660

query: Give a short answer stating reported A = MAX FOLD Induction/DMSO CONTROL for "CCN(CCO)C[C@H]1CCN(c2nccc(-c3ccc4ccccc4c3)n2)C1" .
result: 3.895

query: Give a short answer stating reported A = MAX FOLD Induction/DMSO CONTROL for "CN(C)S(=O)(=O)N1CC[C@@H](Nc2nccc(-c3ccc4ccccc4c3)n2)C1" .
result: 2.510

query: Give a short answer stating reported A = MAX FOLD Induction/DMSO CONTROL for "CCC(=O)N1CCCN(c2nccc(-c3ccc4ccccc4c3)n2)CC1" .
result: 2.260

query: Give a short answer stating reported A = MAX FOLD Induction/DMSO CONTROL for "c1ccc2cc(-c3ccnc(NC[C@@H]4CCNC4)n3)ccc2c1" .
result: 7.510

query: Give a short answer stating reported A = MAX FOLD Induction/DMSO CONTROL for "CC(C)(C)NCC1CCN(c2nccc(-c3ccc4ccccc4c3)n2)CC1" .
result: 3.890
